Where do these numbers come from? They come from ChEMBL document CHEMBL6078649.

experiment: Cytotoxicity against human Huh-7 cells harboring viral replicon/EGFP/Neo genes assessed as cell viability incubated for 24 hrs by Cell Titer Glo assay; type: toxicity, cell-based
EXPERIMENTAL ENDPOINT: CC50 at 24 h

Reference set, count: 3
[ask] Param item = `CC(=O)Oc1c(Cl)c(/C=C/C(=O)c2ccc(F)cc2)c(Cl)c(OC(C)=O)c1OC(C)=O` ; retrieve measured CC50 at 24 h.
[reply] > 50 µM

[ask] Another: `O=C(/C=C/c1c(Cl)c(O)c(O)c(O)c1Cl)c1ccc(F)cc1`
[reply] 41.2 µM

[ask] Another: `O=C(CCc1cc(O)c(O)c(O)c1)c1ccc(F)cc1`
[reply] > 100 µM

Now for the compound whose CC50 at 24 h we want.
[ask] Param item = `O=C(/C=C/c1cc(O)c(O)c(O)c1)c1ccc(F)cc1` ; retrieve measured CC50 at 24 h.
[reply] > 50 µM
